# measured.target: mTORC1 (Homo sapiens (Human))
# procedure.summary: mTORC1 inhibitory activity: phosphorylation of S6RP in A431 cells (HTRF)
# conditions.used: 3 hours at 37° C.
pIC50: −log10 of the molar value.
Classification field: true (1) = pIC50 at or over 8; false (0) = pIC50 under 8.

>  <molecule>
CC(C)C[C@H](C)n1nc(-c2cc3nc(N)oc3cc2F)c2c(N)nc(N)nc21 [Example 2]

>  <measured.target>
mTORC1 (Homo sapiens (Human))

>  <class.assignment>
true (1)

$$$$
>  <molecule>
CCC(C)(C)Cn1nc(-c2cc(C)c3oc(N)nc3c2)c2c(N)nc(N)nc21 [Example 29]

>  <measured.target>
mTORC1 (Homo sapiens (Human))

>  <class.assignment>
false (0)

$$$$
>  <molecule>
CC(C)(C)Cn1nc(-c2ccc3oc(N)nc3c2Cl)c2c(N)nc(N)nc21 [Example 17]

>  <measured.target>
mTORC1 (Homo sapiens (Human))

>  <class.assignment>
true (1)

$$$$
>  <molecule>
CNc1nc(N)c2c(-c3ccc4oc(N)nc4c3)nn(C(C)C)c2n1 [Example 26]

>  <measured.target>
mTORC1 (Homo sapiens (Human))

>  <class.assignment>
false (0)

$$$$
>  <molecule>
CCC(C)(C)Cn1nc(-c2ccc3oc(N)nc3c2)c2c(N)nc(N)nc21 [Example 8]

>  <measured.target>
mTORC1 (Homo sapiens (Human))

>  <class.assignment>
true (1)

$$$$
>  <molecule>
CC1(Cn2nc(-c3cc4nc(N)oc4cc3F)c3c(N)nc(N)nc32)CCC1 [Example 4]

>  <measured.target>
mTORC1 (Homo sapiens (Human))

>  <class.assignment>
true (1)

$$$$
>  <molecule>
COc1cc2oc(N)nc2cc1-c1nn(CC(C)(C)C)c2nc(N)nc(N)c12 [Example 18]

>  <measured.target>
mTORC1 (Homo sapiens (Human))

>  <class.assignment>
true (1)

$$$$
>  <molecule>
CC(C)n1nc(-c2ccc3oc(NC4CC4)nc3c2)c2c(N)nc(N)nc21 [Example 28]

>  <measured.target>
mTORC1 (Homo sapiens (Human))

>  <class.assignment>
false (0)

$$$$
>  <molecule>
CC(C)Cn1nc(-c2ccc3oc(N)nc3c2)c2c(Cl)nc(N)nc21 [Example 23]

>  <measured.target>
mTORC1 (Homo sapiens (Human))

>  <class.assignment>
true (1)

$$$$
>  <molecule>
CCC(C)(C)Cn1nc(-c2cc3nc(N)oc3cc2OC)c2c(N)nc(N)nc21 [Example 20]

>  <measured.target>
mTORC1 (Homo sapiens (Human))

>  <class.assignment>
true (1)

$$$$
>  <molecule>
CC(C)[C@H](C)n1nc(-c2cc3nc(N)oc3cc2Cl)c2c(N)nc(N)nc21 [Example 25]

>  <measured.target>
mTORC1 (Homo sapiens (Human))

>  <class.assignment>
true (1)

$$$$
>  <molecule>
CC(C)(Cn1nc(-c2ccc3oc(N)nc3c2)c2c(N)nc(N)nc21)[C@@H]1CCCO1 [Example 13]

>  <measured.target>
mTORC1 (Homo sapiens (Human))

>  <class.assignment>
true (1)

$$$$
>  <molecule>
C=CC(C)(C)Cn1nc(-c2ccc3oc(N)nc3c2)c2c(N)nc(N)nc21 [Example 12]

>  <measured.target>
mTORC1 (Homo sapiens (Human))

>  <class.assignment>
true (1)

$$$$
>  <molecule>
CC(C)(C)Cn1nc(-c2cc3cc(O)cnc3[nH]2)c2c(N)nc(N)nc21 [Example 19]

>  <measured.target>
mTORC1 (Homo sapiens (Human))

>  <class.assignment>
false (0)

$$$$
>  <molecule>
CCNc1nc2cc(-c3nn(CC(C)(C)C)c4nc(N)nc(N)c34)ccc2o1 [Example 11]

>  <measured.target>
mTORC1 (Homo sapiens (Human))

>  <class.assignment>
true (1)

$$$$
